Several reports have described pIC50 for JNK3 (Homo sapiens); a selection of those results is presented here.
pIC50: −log10 of the molar value.

CC(=O)Nc1cccc(-c2cnc3[nH]cc(C(=O)c4ccccc4F)c3c2)c1 ... ≥ 5.00
CC(C)Cc1cnc2[nH]cc(-c3csc(C(=O)N4CCCCC4)n3)c2c1 ... > 6.70
CN1CCC(c2nc(-c3c[nH]c4ncc(C5=CCC(N6CCOCC6)CC5)cc34)cs2)CC1 (stereo not drawn) ... 6.35

Give pIC50 for each listed item.
1. O=C(Nc1cccc(C(=O)c2c[nH]c3ncccc23)c1)Nc1ccc(F)c(F)c1
2. CCCN(CCOC)[C@H]1CC[C@H](c2cnc3[nH]cc(-c4cnn(C)c4)c3c2)CC1
3. O=C(c1ccccc1F)c1c[nH]c2ncc(-c3ccsc3)cc12
4. CN1CCN(CCCn2cnc(-c3c(Cl)csc3NC(=O)Cn3c(=O)ccc4cc(C(F)(F)F)ccc43)n2)CC1
5. O=C(Cc1cccc2ncc(C(F)(F)F)cc12)Nc1scc(Br)c1-c1nc[nH]n1
6. Cc1cccc(NC(=O)Nc2cccc(C(=O)c3c[nH]c4ncc(-c5cccnc5)cc34)c2)c1
7. O=C(NCc1ccc(S(=O)(=O)N2CCC(Nc3cccc(S(=O)(=O)CCO)c3)CC2)s1)c1ccc(Cl)cc1
8. COCCOc1cnc2[nH]cc(-c3cnn(C)c3)c2c1

["≥ 5.00", 6.44, "≥ 5.00", "> 7.00", "> 7.00", "≥ 5.00", 6.15, "> 5.70"]

Give pIC50 for each listed item.
1. COc1ccc(CC(=O)Nc2ccsc2-c2c[nH]cn2)cc1
2. CN(C)C1CCC(Cc2cnc3[nH]cc(-c4cnn(C)c4)c3c2)CC1 (stereo not drawn)
3. CNC(=O)c1cc(-n2ncc3cc(Oc4ccccc4Cl)ncc32)cs1
4. O=C(Cc1cccc2cc(C(F)(F)F)cnc12)Nc1scc(Br)c1-c1nc[nH]n1
5. COc1ccc2c(c1)CC(C(=O)N(CC(=O)NCCCCNC(=O)c1ccc(-c3n[nH]c4ccccc34)cc1)CC(C)C)CO2 (stereo not drawn)
6. Cn1cc(-c2c[nH]c3ncc(C4CC(C)(C)CC(C)(C)C4)cc23)cn1
7. Cc1csc(-c2c[nH]c3ncc(C4CCCCC4)cc23)n1
8. Cn1cc(-c2c[nH]c3ncc([C@H]4CC[C@@H](NC5CCOCC5)CC4)cc23)cn1

< 5.00
> 6.70
> 6.70
5.00 to 7.00
6.61
5.67
6.03
6.10

Give pIC50 for each listed item.
1. CNC(=O)c1cc(-n2ncc3cc(N(C)c4ccccc4OC)c(F)cc32)cs1
2. Cn1cc(-c2c[nH]c3ncc(CCC(C)(C)C)cc23)cn1
3. FC(F)n1cc(-c2c[nH]c3ncc([C@H]4CC[C@H](N5CCOCC5)CC4)cc23)cn1

["> 6.70", "> 6.30", 6.83]

Give pIC50 for each listed item.
1. COCCNC(=O)c1cc(-n2ncc3cc(Oc4ccccc4Cl)ncc32)cs1
2. Cc1noc(NC(=O)Nc2cccc(C(=O)c3c[nH]c4ncccc34)c2)c1C

["> 6.70", "≥ 5.00"]
